Ref: the supplement of paper PMC11208160

We begin with a simple list: items and their reported recombinant barcode read abundance (log10).
Test description: recombinant barcode read abundance after kanamycin selection (control-corrected) (log10(CPM+1)); higher = more efficient recombination; sequences stand for … in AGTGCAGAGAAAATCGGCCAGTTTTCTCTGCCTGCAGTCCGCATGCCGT…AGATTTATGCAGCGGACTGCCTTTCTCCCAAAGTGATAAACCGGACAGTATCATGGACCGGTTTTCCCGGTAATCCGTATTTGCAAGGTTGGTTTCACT; site = the 11-nt target
Quantity: recombinant barcode read abundance (log10)

Biopolymer sequence | Recorded measurement
GACCTGACTTGGGTTCTAACCTGTTGCCA (site GACCTGGCTCG) | 0.128
TTCACAGCTTGGGTTCTAACCTGTTGCCT (site TTCACACCTAG) | 0.0537
TCCGAGCCTTGGGTTCTAACCTGTTGCAT (site TCCGAGCCTAC) | 0.228
ATCTTAGCTTGGGTTCTAACCTGTTGCCT (site ATCTTAACTAG) | 0.0917
ACGCAATCTTGGGTTCTAACCTGTTGCCT (site ACGCAGTCTAG) | 0.131
TAGTACCCTTGGGTTCTAACCTGTTGCAA (site TAGTACCCTGT) | 0.0816
TAGGCTCCTTGGGTTCTAACCTGTTGCAA (site TAGGCTCCTCT) | 0.0906
ACAGAGACTTGGGTTCTAACCTGTTGCAG (site ACAGAGACTCT) | 1.35
AGGTCACCTTGGGTTCTAACCTGTTGCGT (site AGGTCACCTAG) | 0.536
TGACTACCTTGGGTTCTAACCTGTTGCCT (site TCGCTACCTAG) | 0.0696

---

Test description: recombinant barcode read abundance after kanamycin selection (control-corrected) (log10(CPM+1)); higher = more efficient recombination; sequences stand for … in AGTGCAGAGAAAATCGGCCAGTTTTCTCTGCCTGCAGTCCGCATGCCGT…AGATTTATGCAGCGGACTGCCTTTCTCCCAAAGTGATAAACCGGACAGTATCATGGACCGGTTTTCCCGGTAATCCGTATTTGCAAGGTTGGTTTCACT; site = the 11-nt target
Each entry belongs to exactly one class, chosen by where its recombinant barcode read abundance (log10) falls: range 1: < 0.1; range 2: ≥ 0.1 and < 1; range 3: ≥ 1

Biopolymer sequence | Label value
TAGGTCCCTTGGGTTCTAACCTGTTGCGA (site AAGGTCCCTCC) | range 1
TCTCGGCCTTGGGTTCTAACCTGTTGCCT (site TCTCTGCCTAG) | range 1
AGTCTAGCTTGGGTTCTAACCTGTTGCTA (site AGTCTAGCTGA) | range 2
GTAGACACTTGGGTTCTAACCTGTTGCCG (site GTAGACACTCG) | range 3
GCTTTGCCTTGGGTTCTAACCTGTTGCCT (site ACTTTCCCTAG) | range 1
GGAATACCTTGGGTTCTAACCTGTTGCCT (site GGAATACCTAG) | range 3
GTGTGTTCTTGGGTTCTAACCTGTTGCCT (site GTGTGTACTAG) | range 3
GGGTTGCCTTGGGTTCTAACCTGTTGCCT (site GTGTTGCCTAG) | range 2
TCTAGGACTTGGGTTCTAACCTGTTGCAA (site CGACAATCTAA) | range 2

---

We begin with a simple list: items and their reported recombinant UMI read abundance (log10).
Test description: recombinant UMI read abundance after kanamycin selection (control-corrected) (log10(CPM+1)); higher = more efficient recombination; extreme values may be limits of the assay; sequences stand for … in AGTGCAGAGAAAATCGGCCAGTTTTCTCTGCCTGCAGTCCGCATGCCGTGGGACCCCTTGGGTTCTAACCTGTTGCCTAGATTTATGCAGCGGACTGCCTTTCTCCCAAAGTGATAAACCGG…AGGTTGGTTTCACT; site = the 11-nt donor

Biopolymer sequence | recombinant UMI read abundance (log10)
GTTCGCGCATGGACCGGTTTTCCCGGTAATCCGTATTTGCA (site GTTCGCGCTTG) | 2.03
CTCTATACATGGACCGGTTTTCCCGGTAATCCGTATTTGAC (site CTCTATACTGT) | 2.07
ACTAAAGCATGGACCGGTTTTCCCGGTAATCCGTATTTGAT (site GCTAAAGCTAT) | 0.0031
CGAGGACCATGGACCGGTTTTCCCGGTAATCCGTATTTGGG (site CAAGGACCTCC) | 0.019
